target: WIZ (Homo sapiens, UniProt O95785+Q96SW2); construct: expressed in transfected cells; experiment: Quantification of WIZ protein levels in HiBit tag fusion protein assay (293T cells); assay type: cell-based; conditions: HEK-293T; at 25 uM, 100 − Amax; read-out: % degradation of WIZ (100 − Amax)
Sequence (O95785 whole entry, the tested form may be a part): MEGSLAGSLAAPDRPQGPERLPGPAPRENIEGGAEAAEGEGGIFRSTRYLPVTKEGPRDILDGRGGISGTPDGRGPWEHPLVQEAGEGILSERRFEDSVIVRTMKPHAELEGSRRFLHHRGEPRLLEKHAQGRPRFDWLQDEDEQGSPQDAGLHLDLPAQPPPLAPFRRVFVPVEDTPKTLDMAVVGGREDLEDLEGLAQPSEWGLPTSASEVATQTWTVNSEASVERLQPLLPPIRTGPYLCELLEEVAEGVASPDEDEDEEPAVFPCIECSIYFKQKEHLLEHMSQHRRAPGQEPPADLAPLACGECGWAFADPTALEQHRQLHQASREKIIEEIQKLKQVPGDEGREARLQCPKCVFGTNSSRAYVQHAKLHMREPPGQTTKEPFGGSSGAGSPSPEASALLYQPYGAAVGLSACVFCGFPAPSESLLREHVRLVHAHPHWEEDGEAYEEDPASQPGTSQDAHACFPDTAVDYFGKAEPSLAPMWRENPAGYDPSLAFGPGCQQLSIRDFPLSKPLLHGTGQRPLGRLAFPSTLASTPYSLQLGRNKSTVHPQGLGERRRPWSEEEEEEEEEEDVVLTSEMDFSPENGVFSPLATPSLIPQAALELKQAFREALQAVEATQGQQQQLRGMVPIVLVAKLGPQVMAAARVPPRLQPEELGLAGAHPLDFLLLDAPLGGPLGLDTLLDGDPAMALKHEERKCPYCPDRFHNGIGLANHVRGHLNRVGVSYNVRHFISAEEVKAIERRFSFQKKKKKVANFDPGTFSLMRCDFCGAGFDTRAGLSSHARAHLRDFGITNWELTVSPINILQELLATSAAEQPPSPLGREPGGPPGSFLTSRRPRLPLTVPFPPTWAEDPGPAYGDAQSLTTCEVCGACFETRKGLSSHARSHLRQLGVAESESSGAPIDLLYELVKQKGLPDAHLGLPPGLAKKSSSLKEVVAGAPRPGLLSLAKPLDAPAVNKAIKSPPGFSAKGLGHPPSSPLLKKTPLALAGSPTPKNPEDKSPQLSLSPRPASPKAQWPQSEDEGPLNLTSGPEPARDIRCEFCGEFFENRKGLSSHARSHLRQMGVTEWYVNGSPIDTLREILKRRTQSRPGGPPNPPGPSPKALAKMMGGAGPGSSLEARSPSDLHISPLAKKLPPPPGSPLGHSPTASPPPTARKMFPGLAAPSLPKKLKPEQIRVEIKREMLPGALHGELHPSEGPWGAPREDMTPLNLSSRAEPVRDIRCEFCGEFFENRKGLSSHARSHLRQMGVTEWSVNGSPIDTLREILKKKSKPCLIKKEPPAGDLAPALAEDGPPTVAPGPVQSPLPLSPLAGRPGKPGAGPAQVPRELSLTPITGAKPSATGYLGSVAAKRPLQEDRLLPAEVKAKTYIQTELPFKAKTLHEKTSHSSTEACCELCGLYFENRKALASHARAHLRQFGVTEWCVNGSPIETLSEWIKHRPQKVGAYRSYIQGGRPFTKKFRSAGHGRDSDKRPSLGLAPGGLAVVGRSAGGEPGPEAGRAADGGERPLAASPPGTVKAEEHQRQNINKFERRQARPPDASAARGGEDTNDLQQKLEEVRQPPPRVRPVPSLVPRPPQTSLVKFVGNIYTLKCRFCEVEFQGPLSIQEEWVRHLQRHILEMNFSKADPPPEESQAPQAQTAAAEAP
Sequence (Q96SW2 whole entry, the tested form may be a part): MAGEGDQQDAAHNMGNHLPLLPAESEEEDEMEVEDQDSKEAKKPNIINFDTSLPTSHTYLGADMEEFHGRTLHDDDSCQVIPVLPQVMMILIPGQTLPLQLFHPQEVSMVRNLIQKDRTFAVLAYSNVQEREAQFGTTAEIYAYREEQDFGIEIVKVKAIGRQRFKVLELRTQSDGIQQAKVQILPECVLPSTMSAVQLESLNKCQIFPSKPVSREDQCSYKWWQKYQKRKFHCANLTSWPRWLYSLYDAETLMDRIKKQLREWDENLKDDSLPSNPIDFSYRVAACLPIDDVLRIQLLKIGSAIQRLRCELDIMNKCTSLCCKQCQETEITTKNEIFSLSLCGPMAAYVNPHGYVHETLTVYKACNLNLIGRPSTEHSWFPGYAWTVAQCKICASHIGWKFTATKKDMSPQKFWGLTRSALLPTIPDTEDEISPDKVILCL
Sequence (Q16531 whole entry partner, the tested form may be a part): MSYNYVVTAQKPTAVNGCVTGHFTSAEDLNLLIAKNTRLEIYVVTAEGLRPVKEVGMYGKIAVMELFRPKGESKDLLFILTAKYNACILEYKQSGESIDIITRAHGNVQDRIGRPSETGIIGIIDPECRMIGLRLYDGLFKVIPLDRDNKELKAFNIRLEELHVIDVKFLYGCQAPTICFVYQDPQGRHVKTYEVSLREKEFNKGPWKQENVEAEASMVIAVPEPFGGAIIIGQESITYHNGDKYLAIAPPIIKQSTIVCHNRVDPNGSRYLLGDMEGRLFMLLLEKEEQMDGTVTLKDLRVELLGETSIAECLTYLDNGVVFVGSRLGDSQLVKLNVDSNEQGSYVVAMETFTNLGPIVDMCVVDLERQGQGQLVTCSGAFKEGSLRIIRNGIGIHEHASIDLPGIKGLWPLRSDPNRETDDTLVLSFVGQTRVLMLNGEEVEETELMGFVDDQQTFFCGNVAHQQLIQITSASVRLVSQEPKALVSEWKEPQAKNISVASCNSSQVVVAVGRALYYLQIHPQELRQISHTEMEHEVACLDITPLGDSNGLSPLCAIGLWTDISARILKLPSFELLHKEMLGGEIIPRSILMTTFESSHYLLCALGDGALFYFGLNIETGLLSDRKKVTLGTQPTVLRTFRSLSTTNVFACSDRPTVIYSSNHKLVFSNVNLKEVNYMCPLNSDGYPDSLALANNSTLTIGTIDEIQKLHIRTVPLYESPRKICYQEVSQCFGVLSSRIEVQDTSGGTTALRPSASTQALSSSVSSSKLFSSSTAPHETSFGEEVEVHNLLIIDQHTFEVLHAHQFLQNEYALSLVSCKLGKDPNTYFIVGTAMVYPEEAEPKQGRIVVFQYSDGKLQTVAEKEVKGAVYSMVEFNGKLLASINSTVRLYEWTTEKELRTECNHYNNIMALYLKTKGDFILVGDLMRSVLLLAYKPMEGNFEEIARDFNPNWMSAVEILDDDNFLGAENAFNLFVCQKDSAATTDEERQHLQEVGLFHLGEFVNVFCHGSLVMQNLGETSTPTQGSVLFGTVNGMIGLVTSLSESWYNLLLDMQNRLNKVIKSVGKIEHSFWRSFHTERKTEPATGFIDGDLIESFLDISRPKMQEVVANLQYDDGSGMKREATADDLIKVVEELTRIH
compounds and their reported Dmax at 25 µM
Just the number please, in %, no unit attached.

*Q* Tell me reported Dmax at 25 µM for CO[C@H]1CC[C@H](CN2CCC[C@@H](Oc3ccc4c(c3)CN(C3CCC(=O)NC3=O)C4=O)C2)CC1 (stereo partly shown) , tested with WIZ (Homo sapiens, UniProt O95785+Q96SW2).
*A* 29.2

*Q* Tell me reported Dmax at 25 µM for CO[C@H]1C[C@H](CN2CCC[C@@H](Oc3ccc4c(c3)CN(C3CCC(=O)NC3=O)C4=O)C2)C1 (stereo partly shown) , tested with WIZ (Homo sapiens, UniProt O95785+Q96SW2).
*A* 39.7

*Q* Tell me reported Dmax at 25 µM for CCN1C[C@@H]2C[C@@H]2[C@@H](Oc2ccc3c(c2)CN(C2CCC(=O)NC2=O)C3=O)C1 (single isomer, unassigned) , tested with WIZ (Homo sapiens, UniProt O95785+Q96SW2).
*A* 74.3

*Q* Tell me reported Dmax at 25 µM for O=C1CCC(N2Cc3cc(O[C@@H]4CCCN(CC5CCC(F)(F)CC5)C4)ccc3C2=O)C(=O)N1 (stereo partly shown) , tested with WIZ (Homo sapiens, UniProt O95785+Q96SW2).
*A* 22.7

###

molecular target: WIZ (Homo sapiens, UniProt O95785+Q96SW2); construct: expressed in transfected cells; assay: Quantification of WIZ protein levels in HiBit tag fusion protein assay (293T cells); format: cell-based; details: WIZ HiBit assay in 293T cells, about 18 hours, 10-point 5-fold dilution, top 25 μM; read-out: WIZ AC50
measured.property: DC50 (nM)
Just the number please, in nM, no unit attached.

Reference set (2 entries):
>  <compound>
CCN1C[C@H](C)C[C@@H](Oc2ccc3c(c2)CN(C2CCC(=O)NC2=O)C3=O)C1 (mixture of isomers) [Example 52]

>  <tgt>
WIZ (Homo sapiens, UniProt O95785+Q96SW2)

>  <DC50 / nM>
5.5

$$$$
>  <compound>
C[C@@H]1C[C@@H](Oc2ccc3c(c2)CN(C2CCC(=O)NC2=O)C3=O)CN(C2CCC2)C1 (stereo partly shown) [Example 78]

>  <tgt>
WIZ (Homo sapiens, UniProt O95785+Q96SW2)

>  <DC50 / nM>
0.5

$$$$

// next entry
*Q* Tell me reported DC50 for CCN1C[C@H](O)C[C@@H](Oc2ccc3c(c2)CN(C2CCC(=O)NC2=O)C3=O)C1 (stereo partly shown) [Example 66] , tested with WIZ (Homo sapiens, UniProt O95785+Q96SW2).
*A* 33.3

###

biological target: WIZ (Homo sapiens, UniProt O95785+Q96SW2); construct: expressed in transfected cells; assay: Quantification of WIZ protein levels in HiBit tag fusion protein assay (293T cells); format: cell-based; conditions: HEK-293T; at 25 uM, 100 − Amax; read-out: % degradation of WIZ (100 − Amax)
Grouping key: Dmax at 25 µM. Bins: lower level: < 30%; middle level: ≥ 30% and < 80%; upper level: ≥ 80%

Study these solved cases before continuing.
>  <compound>
O=C1CCC(N2Cc3cc(O[C@@H]4CCCN(C5CC(F)(F)C5)C4)ccc3C2=O)C(=O)N1 (mixture of isomers) [Example 29]

>  <assigned.label>
middle level

$$$$
>  <compound>
CC(C)N1C[C@H](O)C[C@@H](Oc2ccc3c(c2)CN(C2CCC(=O)NC2=O)C3=O)C1 (stereo partly drawn) [Example 67]

>  <assigned.label>
upper level

$$$$

*Q* Which class does CC(C)N1C[C@H](C)C[C@@H](Oc2ccc3c(c2)CN(C2CCC(=O)NC2=O)C3=O)C1 (stereo partly drawn) [Example 77] fall in?
*A* upper level

*Q* Which class does O=C1CCC(N2Cc3cc(O[C@@H]4CCCN(C5COC5)C4)ccc3C2=O)C(=O)N1 (stereo partly drawn) [Example 12] fall in?
*A* middle level

*Q* Which class does CC(=O)N1C[C@H](Oc2ccc3c(c2)CN(C2CCC(=O)NC2=O)C3=O)CC[C@@H]1C (stereo partly drawn) [Example 86] fall in?
*A* lower level

*Q* Which class does CC(C)CN1CCC[C@@H](Oc2ccc3c(c2)CN(C2CCC(=O)NC2=O)C3=O)C1 (stereo partly drawn) [Example 3] fall in?
*A* middle level

*Q* Which class does C[C@H]1CC[C@@H](Oc2ccc3c(c2)CN(C2CCC(=O)NC2=O)C3=O)CN1S(C)(=O)=O (stereo partly drawn) [Example 85] fall in?
*A* middle level

*Q* Which class does O=C1CCC(N2Cc3cc(O[C@@H]4CCCN(CC#CC5CC5)C4)ccc3C2=O)C(=O)N1 (stereo partly drawn) [Example 25] fall in?
*A* middle level

*Q* Which class does CC(C)CN1CCCC[C@@H](Oc2ccc3c(c2)CN(C2CCC(=O)NC2=O)C3=O)C1 (stereo partly drawn) [Example 38] fall in?
*A* middle level

*Q* Which class does CCN1CC[C@H](Oc2ccc3c(c2)CN(C2CCC(=O)NC2=O)C3=O)C1 (stereo partly drawn) [Example 40] fall in?
*A* lower level

###

Target: SALL4 (Homo sapiens, UniProt Q96SW2+Q9UJQ4)
Construct: expressed in transfected cells; host or cells: GripTite 293 MSR cells (293GT), ThermoFisher Scientific, stably transfected by electroporation, blasticidin-selected clones
Sequence (Q9UJQ4 whole entry): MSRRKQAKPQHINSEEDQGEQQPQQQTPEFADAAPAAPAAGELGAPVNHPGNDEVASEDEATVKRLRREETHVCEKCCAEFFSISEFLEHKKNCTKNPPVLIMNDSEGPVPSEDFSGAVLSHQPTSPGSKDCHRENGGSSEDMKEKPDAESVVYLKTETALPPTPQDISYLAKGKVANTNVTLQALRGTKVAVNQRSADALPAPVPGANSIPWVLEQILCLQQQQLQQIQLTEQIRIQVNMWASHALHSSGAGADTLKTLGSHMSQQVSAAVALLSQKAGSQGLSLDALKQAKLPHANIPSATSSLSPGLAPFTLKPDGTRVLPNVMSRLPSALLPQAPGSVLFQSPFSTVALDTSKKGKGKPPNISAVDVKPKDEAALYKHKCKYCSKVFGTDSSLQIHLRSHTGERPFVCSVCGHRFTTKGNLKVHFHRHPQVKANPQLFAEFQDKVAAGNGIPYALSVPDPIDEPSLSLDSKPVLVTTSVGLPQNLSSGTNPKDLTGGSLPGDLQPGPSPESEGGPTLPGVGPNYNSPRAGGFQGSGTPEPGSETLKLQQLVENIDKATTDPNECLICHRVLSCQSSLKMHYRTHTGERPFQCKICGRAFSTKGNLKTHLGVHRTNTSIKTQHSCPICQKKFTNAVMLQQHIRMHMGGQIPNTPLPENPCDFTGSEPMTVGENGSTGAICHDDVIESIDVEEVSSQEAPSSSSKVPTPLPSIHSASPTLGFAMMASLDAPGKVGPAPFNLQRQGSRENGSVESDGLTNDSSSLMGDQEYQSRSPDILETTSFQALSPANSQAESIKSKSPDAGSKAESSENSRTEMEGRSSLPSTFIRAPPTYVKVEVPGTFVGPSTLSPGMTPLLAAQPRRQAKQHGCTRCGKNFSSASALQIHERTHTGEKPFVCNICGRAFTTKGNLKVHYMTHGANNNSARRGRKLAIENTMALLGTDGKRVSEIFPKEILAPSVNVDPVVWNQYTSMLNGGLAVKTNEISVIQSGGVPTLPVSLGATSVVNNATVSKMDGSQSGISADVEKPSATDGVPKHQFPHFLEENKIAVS
Sequence (Q96SW2 whole entry): as the sequence (Q96SW2 whole entry, the tested form may be a part) above
Sequence (Q16531 whole entry partner): as the sequence (Q16531 whole entry partner, the tested form may be a part) above
Assay: Quantification of SALL4 protein levels in HiBiT tag fusion protein assay
Type: cell-based
Conditions: DMSO-normalized, curve-fitted percentage of SALL4-HiBiT remaining at 50 uM; mean over repeats
Description: The HiBiT system from Promega was used to develop high-throughput and quantitative assays to measure changes in SALL4 protein levels in response to compounds. […] The complementary fragment of Nanoluciferase (known as LgBiT, from Promega), was added to the HiBiT tag to form an active Nanoluciferase enzyme whose activity can be precisely measured. In this way, the levels of a fusion protein with the HiBiT tag can be quantified in cell lysates. […]
compounds and their reported SALL4 Amax
Just the number please, in %, no unit attached.

>  <compound>
CCN1CCC[C@@H](Oc2ccc3c(c2)CN(C2CCC(=O)NC2=O)C3=O)C1 (mixture of isomers)

>  <tgt>
SALL4 (Homo sapiens, UniProt Q96SW2+Q9UJQ4)

>  <SALL4 Amax, %>
72.21

$$$$
>  <compound>
O=C1CCC(N2Cc3cc(OC[C@H]4CCCCN4CC4CC4)ccc3C2=O)C(=O)N1 (stereo partly shown) [Comparative Example 3, reference compound]

>  <tgt>
SALL4 (Homo sapiens, UniProt Q96SW2+Q9UJQ4)

>  <SALL4 Amax, %>
52.88

$$$$
>  <compound>
CCN1CCCC[C@@H]1COc1ccc2c(c1)CN(C1CCC(=O)NC1=O)C2=O (mixture of isomers) [Comparative Example 1, reference compound]

>  <tgt>
SALL4 (Homo sapiens, UniProt Q96SW2+Q9UJQ4)

>  <SALL4 Amax, %>
51.51

$$$$

// next entry
*Q* Name the reported SALL4 Amax value associated with the compound O=C1CCC(N2Cc3cc(O[C@@H]4CCCN(CC5CC5)C4)ccc3C2=O)C(=O)N1 (stereo partly shown)
*A* 70.82

###

target: WIZ (Homo sapiens, UniProt O95785+Q96SW2); construct: expressed in transfected cells; assay: Quantification of WIZ protein levels in HiBit tag fusion protein assay (293T cells); assay type: cell-based; settings: WIZ HiBit assay in 293T cells, about 18 hours, 10-point 5-fold dilution, top 25 μM; read-out: WIZ AC50
Classify: true when DC50 is strictly less than 10 nM; false when DC50 is not.

Study these solved cases before continuing.
>  <compound>
CCN1CC[C@@H](F)[C@H](Oc2ccc3c(c2)CN(C2CCC(=O)NC2=O)C3=O)C1 (relative stereo) [Example 56]

>  <tgt>
WIZ (Homo sapiens, UniProt O95785+Q96SW2)

>  <assigned.label>
false

$$$$
>  <compound>
CCN1CCCC[C@H](Oc2ccc3c(c2)CN(C2CCC(=O)NC2=O)C3=O)C1 (some centres unmarked) [Example 37]

>  <tgt>
WIZ (Homo sapiens, UniProt O95785+Q96SW2)

>  <assigned.label>
false

$$$$
>  <compound>
O=C1CCC(N2Cc3cc(O[C@@H]4CCCN(CC5CC5)C4)ccc3C2=O)C(=O)N1 (some centres unmarked) [Example 13]

>  <tgt>
WIZ (Homo sapiens, UniProt O95785+Q96SW2)

>  <assigned.label>
false

$$$$
>  <compound>
CCN1CCCC[C@@H](Oc2ccc3c(c2)CN(C2CCC(=O)NC2=O)C3=O)C1 (some centres unmarked) [Example 36]

>  <tgt>
WIZ (Homo sapiens, UniProt O95785+Q96SW2)

>  <assigned.label>
false

$$$$
>  <compound>
CCN1CC(Oc2ccc3c(c2)CN(C2CCC(=O)NC2=O)C3=O)CCC1(C)C (centres unmarked) [Example 88-2]

>  <tgt>
WIZ (Homo sapiens, UniProt O95785+Q96SW2)

>  <assigned.label>
true

$$$$

*Q* Report whether reported DC50 is lower than 10 nM (strictly) for CCO[C@@H]1C[C@@H](Oc2ccc3c(c2)CN(C2CCC(=O)NC2=O)C3=O)CN(C(C)C)C1 (some centres unmarked) [Example 74]
*A* true

*Q* Report whether reported DC50 is lower than 10 nM (strictly) for CCN1CC[C@@H](C)[C@@H](Oc2ccc3c(c2)CN(C2CCC(=O)NC2=O)C3=O)C1 (mixture of isomers) [Example 46]
*A* false

*Q* Report whether reported DC50 is lower than 10 nM (strictly) for CCO[C@@H]1C[C@@H](Oc2ccc3c(c2)CN(C2CCC(=O)NC2=O)C3=O)CN(C2CCC2)C1 (some centres unmarked) [Example 73]
*A* false
